molecular target: T1, hRAGE-Fc (human, UniProt Q15109 23-342, biotin label in the selections and HTRF assays); test: HTRF competition, scFv vs labelled parental XT-M4 (competitor) on biotin hRAGE-Fc
T1 construct: extracellular domain; also called biotin labeled hRAGE-Fc; Biotin-labeled RAGE-Fc; not shown: Fc part
T1 sequence (Q15109 23-342): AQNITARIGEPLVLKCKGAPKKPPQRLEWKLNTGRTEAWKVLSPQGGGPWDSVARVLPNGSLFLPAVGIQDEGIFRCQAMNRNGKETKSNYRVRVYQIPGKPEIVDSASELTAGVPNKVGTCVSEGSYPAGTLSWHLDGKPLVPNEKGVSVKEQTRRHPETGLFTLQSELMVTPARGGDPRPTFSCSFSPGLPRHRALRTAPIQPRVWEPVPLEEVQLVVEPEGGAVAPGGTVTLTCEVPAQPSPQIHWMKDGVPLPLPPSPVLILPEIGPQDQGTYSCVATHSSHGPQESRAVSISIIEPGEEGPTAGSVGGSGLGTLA
Recorded pIC50 by entry
The scale used: pIC50 is minus the common logarithm of the concentration in molar units.

// below: answered binders
{"columns": ["binder", "observed.result"],
 "data": [
  ["6E5 scFv (scFv) scFv: DIQMTQSPSSLSASVGDRVTITCRASQDVGIYVNWFQQKPGKAPRRLIYRATNLADGVPSRFSGSRSGTDFTLTISSLQPEDFATYYCLEFDEHPLTFGGGTKVEIKDGGGSGGGGSGGGGSSEVQLVESGGGLVQPGGSLRLSCAASGFTFNNYWMTWVRQAPGKGLEWVASIDNSGDNTYYPDSVKDRFTISRDNAKNSLYLQMNSLRAEDTAVYYCARGGDIRVMLDVWGQGTLVTVSS", 8.65],
  ["6C10 scFv (scFv) scFv: DIQMTQSPSSLSASVGDRVTITCRASQDVGIYVNWFQQKPGKAPRRLIYRATNLADGVPSRFSGSRSGTDFTLTISSLQPEDFATYYCLQFDEHPLTFGGGTKVEIKDGGGSGGGGSGGGGSSEVQLVESGGGLVQPGGSLRLSCAASGFTFNNYWMTWVRQAPGKGLEWVASIDNSGDNTYYPDSVKDRFTISRDNAKNSLYLQMNSLRAEDTAVYYCARGGDITTGFDYWGQGTLVTVSS", 8.13],
  ["3G3 scFv (scFv) scFv: DIQMTQSPSSLSASVGDRVTITCRASQDVGIYVNWFQQKPGKAPRRLIYRATNLADGVPSRFSGSRSGTDFTLTISSLQPEDFATYYCLEFDEHPLTFGGGTKVEIKDGGGSGGGGSGGGGSSEVQLVESGGGLVQPGGSLRLSCAASGFTFNNYWMTWVRQAPGKGLEWVASIDNSGDNTYYPDSVKDRFTISRDNAKNSLYLQMNSLRAEDTAVYYCARGGDIKVSLDHWGQGTLVTVSS", 8.84]
]}

Form: binder = 3E8 scFv (scFv) scFv: DIQMTQSPSSLSASVGDRVTITCRASQDVGIYVNWFQQKPGKAPRRLIYRATNLADGVPSRFSGSRSGTDFTLTISSLQPEDFATYYCLQFDVHPLTFGGGTKVEIKDGGGSGGGGSGGGGSSEVQLVESGGGLVQPGGSLRLSCAASGFTFNNYWMTWVRQAPGKGLEWVASIDNSGDNTYYPDSVKDRFTISRDNAKNSLYLQMNSLRAEDTAVYYCARGGDITTGFDYWGQGTLVTVSS ; pIC50 = 8.14

Entry parental XT-M4 scFv (VH 2.0, VL 2.11), VL-VH format (scFv, also called M4WT) scFv: DIQMTQSPSSLSASVGDRVTITCRASQDVGIYVNWFQQKPGKAPRRLIYRATNLADGVPSRFSGSRSGTDFTLTISSLQPEDFATYYCLEFDEHPLTFGGGTKVEIKDGGGSGGGGSGGGGSSEVQLVESGGGLVQPGGSLRLSCAASGFTFNNYWMTWVRQAPGKGLEWVASIDNSGDNTYYPDSVKDRFTISRDNAKNSLYLQMNSLRAEDTAVYYCARGGDITTGFDYWGQGTLVTVSS ; pIC50 = 7.48
